From: patent US12577245B2

As shown below, each of these compounds has a reported pIC50 value.
# TARGET_SYSTEM: Bcl-2 G101V (Homo sapiens, UniProt P10415, G101V)
# MEASUREMENT_PROTOCOL: Bcl-2 G101V inhibition, fluorescence polarization (Flu-BIM tracer) binding assay
# TEST_CONDITIONS: FP; 20 nM Bcl2, 5 nM Flu-BIM, 1 h incubation; read-out: Bcl-2 G101V (FP)
Please report pIC50 as the negative decimal logarithm of the molar concentration, giving only the number.

Guide cases for pIC50, answers given:
COMPOUND	TARGET_SYSTEM	pIC50
CC1(C)CCC(CN2CCN(c3ccc(C(=O)NS(=O)(=O)c4ccc(NC[C@H]5CC[C@](C)(O)CC5)c([N+](=O)[O-])c4)c(Oc4cnc5[nH]ccc5c4)c3)CC2)=C(c2cc(-c3c(F)cc(C(C)(C)CO)cc3F)cs2)C1	Bcl-2 G101V (Homo sapiens, UniProt P10415, G101V)	7.52
CC(CO)c1ccc(-c2csc(C3=C(CN4CCN(c5ccc(C(=O)NS(=O)(=O)c6ccc(NC[C@H]7CC[C@](C)(O)CC7)c([N+](=O)[O-])c6)c(Oc6cnc7[nH]ccc7c6)c5)CC4)CCC(C)(C)C3)c2)c(F)c1 (stereo partly shown)	Bcl-2 G101V (Homo sapiens, UniProt P10415, G101V)	7.57
CC1(C)CCC(CN2CCN(c3ccc(C(=O)NS(=O)(=O)c4ccc(NC[C@H]5CC[C@](C)(O)CC5)c([N+](=O)[O-])c4)c(Oc4cnc5[nH]ccc5c4)c3)CC2)=C(c2cc(-c3ccc(F)cc3F)cs2)C1	Bcl-2 G101V (Homo sapiens, UniProt P10415, G101V)	7.47

Turning to the following compound.
The recorded pIC50 for entry `C[C@@H]1CN(Cc2csc(C3=C(CN4CCN(c5ccc(C(=O)NS(=O)(=O)c6ccc(NC[C@H]7COCCO7)c([N+](=O)[O-])c6)c(Oc6cnc7[nH]ccc7c6)c5)CC4)CCC(C)(C)C3)c2)C[C@H](C)N1C` equals 7.15

---

# TARGET_SYSTEM: Bcl-2 G101V (Homo sapiens, UniProt P10415, G101V)
# MEASUREMENT_PROTOCOL: Bcl-2 G101V inhibition, fluorescence polarization (Flu-BIM tracer) binding assay
# TEST_CONDITIONS: FP; 20 nM Bcl2, 5 nM Flu-BIM, 1 h incubation; read-out: Bcl-2 G101V (FP)
MEASURED_QUANTITY: IC50 (nM)
Numeric answer only, unit nM assumed.

COMPOUND	READOUT_UNITS	IC50
CC1(C)CCC(CN2CCN(c3ccc(C(=O)NS(=O)(=O)c4ccc(NC[C@H]5CC[C@](C)(O)CC5)c([N+](=O)[O-])c4)c(Oc4cnc5[nH]ccc5c4)c3)CC2)=C(c2cc(-c3ccc(C(F)F)cc3)cs2)C1	nM	43.6

The recorded IC50 for entry `CC1(C)CCC(CN2CCN(c3ccc(C(=O)NS(=O)(=O)c4ccc(NC[C@H]5COCCO5)c([N+](=O)[O-])c4)c(Oc4cnc5[nH]ccc5c4)c3)CC2)=C(c2cc(-c3ccc(F)cc3)cs2)C1` equals 33.1

The recorded IC50 for entry `Cc1ccc(C2=C(CN3CCN(c4ccc(C(=O)NS(=O)(=O)c5ccc(NCC6CCOCC6)c([N+](=O)[O-])c5)c(Oc5cnc6[nH]ccc6c5)c4)CC3)CCC(C)(C)C2)s1` equals 33.9

The recorded IC50 for entry `CC(C)c1csc(C2=C(CN3CCN(c4ccc(C(=O)NS(=O)(=O)c5ccc(NCC6CCOCC6)c([N+](=O)[O-])c5)c(Oc5cnc6[nH]ccc6c5)c4)CC3)CCC(C)(C)C2)c1` equals 30.9

The recorded IC50 for entry `CC1(C)CCC(CN2CCN(c3ccc(C(=O)NS(=O)(=O)c4ccc(NC[C@H]5COCCO5)c([N+](=O)[O-])c4)c(Oc4cnc5[nH]ccc5c4)c3)CC2)=C(c2cc(-c3ccc(F)c(F)c3)cs2)C1` equals 42.7

The recorded IC50 for entry `CC1(C)CCC(CN2CCN(c3ccc(C(=O)NS(=O)(=O)c4ccc(NC[C@H]5COCCO5)c([N+](=O)[O-])c4)c(Oc4cnc5[nH]ccc5c4)c3)CC2)=C(c2cc(-c3ccc(C(F)F)cc3)cs2)C1` equals 36.7

The recorded IC50 for entry `CC1(C)CCC(CN2CCN(c3ccc(C(=O)NS(=O)(=O)c4ccc(NC[C@H]5CC[C@](C)(O)CC5)c([N+](=O)[O-])c4)c(Oc4cnc5[nH]ccc5c4)c3)CC2)=C(c2cc(-c3cc(C(C)(C)O)ccc3F)cs2)C1` equals 34.3

The recorded IC50 for entry `CC1(C)CCC(CN2CCN(c3ccc(C(=O)NS(=O)(=O)c4ccc(NC[C@H]5CC[C@@](C)(O)CC5)c([N+](=O)[O-])c4)c(Oc4cnc5[nH]ccc5c4)c3)CC2)=C(c2cc(-c3ccc(F)cc3)cs2)C1` equals 46.2
